B1: SLC35F2 (parent)
chain: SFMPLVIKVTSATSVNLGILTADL

variants of: B1; experiment: protein stability index of a GFP-peptide fusion (GPS, HEK-293T) (PSI 1-6); higher = more stable; conditions: c terminus: a fixed tail appended;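 note: lentivirally expressed fusions sorted by FACS into six bins by GFP to DsRed ratio, PSI derived from sequencing read proportions per bin multiplied by bin number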
quantity_measured: protein stability index

# protein stability index of `F2T` = 2.87

# protein stability index of `V6A` = 2.02

# protein stability index of `S14H` = 1.79

# protein stability index of `P4H` = 3.09

# protein stability index of `A22R` = 2.35

# protein stability index of `I7A` = 2.13

# protein stability index of `L5D` = 1.88

# protein stability index of `V6R` = 2.43

# protein stability index of `I19G` = 3.15

# protein stability index of `L5P` = 2.55

# protein stability index of `S1P` = 3.06

# protein stability index of `I7H` = 1.57

# protein stability index of `N16E` = 2.55

# protein stability index of `P4M` = 3.13

# protein stability index of `I19F` = 3.09

# protein stability index of `D23K` = 1.8

# protein stability index of `D23G` = 3.96

# protein stability index of `L24N` = 3.27

# protein stability index of `A12C` = 4.33

# protein stability index of `T10M` = 2.46

# protein stability index of `V9K` = 1.48

# protein stability index of `D23M` = 1.83

# protein stability index of `S14Q` = 1.71

# protein stability index of `G18N` = 3.27

# protein stability index of `V9L` = 4.15

# protein stability index of `D23W` = 2.49

# protein stability index of `L24I` = 3.14

# protein stability index of `V15G` = 2.91

# protein stability index of `T13V` = 2.43

# protein stability index of `I7S` = 1.89

# protein stability index of `F2I` = 3.41

# protein stability index of `T21N` = 1.87

# protein stability index of `L20F` = 3.49

# protein stability index of `S11D` = 2.91
